# Study target: P-gp1b (Mus musculus)
# Sequence (P06795 whole entry): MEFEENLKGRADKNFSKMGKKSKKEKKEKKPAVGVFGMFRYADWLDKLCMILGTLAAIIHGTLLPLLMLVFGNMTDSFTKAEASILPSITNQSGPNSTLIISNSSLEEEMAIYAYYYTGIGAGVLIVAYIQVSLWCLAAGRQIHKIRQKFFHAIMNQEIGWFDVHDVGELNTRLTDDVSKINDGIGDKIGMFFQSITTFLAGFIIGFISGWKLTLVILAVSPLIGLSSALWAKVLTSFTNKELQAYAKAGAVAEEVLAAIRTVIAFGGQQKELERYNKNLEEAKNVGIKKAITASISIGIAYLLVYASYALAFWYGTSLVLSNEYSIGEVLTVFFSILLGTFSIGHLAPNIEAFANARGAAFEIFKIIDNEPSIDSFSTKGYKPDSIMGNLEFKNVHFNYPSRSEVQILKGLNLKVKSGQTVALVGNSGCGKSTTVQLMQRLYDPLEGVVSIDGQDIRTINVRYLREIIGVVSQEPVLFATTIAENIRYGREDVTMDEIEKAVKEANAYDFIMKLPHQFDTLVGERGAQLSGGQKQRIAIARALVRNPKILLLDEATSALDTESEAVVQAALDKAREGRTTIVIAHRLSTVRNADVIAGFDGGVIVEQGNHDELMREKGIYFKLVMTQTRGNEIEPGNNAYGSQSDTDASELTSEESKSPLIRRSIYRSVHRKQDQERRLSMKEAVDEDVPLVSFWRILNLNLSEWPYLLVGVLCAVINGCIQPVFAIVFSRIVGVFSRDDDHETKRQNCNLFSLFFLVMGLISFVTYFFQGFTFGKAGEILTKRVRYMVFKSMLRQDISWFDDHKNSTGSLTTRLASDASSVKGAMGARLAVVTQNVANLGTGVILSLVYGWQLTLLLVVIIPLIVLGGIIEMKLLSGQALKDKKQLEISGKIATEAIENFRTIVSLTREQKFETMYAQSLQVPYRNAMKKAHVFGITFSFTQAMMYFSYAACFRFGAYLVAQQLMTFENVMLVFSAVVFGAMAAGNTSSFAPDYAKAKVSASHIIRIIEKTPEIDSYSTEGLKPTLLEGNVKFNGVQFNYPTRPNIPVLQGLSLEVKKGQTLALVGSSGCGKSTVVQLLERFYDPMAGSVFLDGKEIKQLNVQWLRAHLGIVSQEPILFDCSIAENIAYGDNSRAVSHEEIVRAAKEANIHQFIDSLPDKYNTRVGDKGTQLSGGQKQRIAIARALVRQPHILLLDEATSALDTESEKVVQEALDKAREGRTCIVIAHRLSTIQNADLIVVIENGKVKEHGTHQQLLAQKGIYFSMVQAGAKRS
# Procedure summary: Displacement of equilibrium [3H]vinblastine binding, LR73-1b membranes
Assay readout: pKi
Numbers only, as −log10 of the molar value.

Quick one: pKi of CC(=O)[C@H]1CC[C@H]2[C@@H]3CCC4=CC(=O)CC[C@]4(C)[C@H]3CC[C@]12C [progesterone] ?
5.74

---

# Study target: P-gp1a (Mus musculus)
# Construct: expressed in transfected cells; host or cells: Chinese hamster ovary LR73 cells (LR73-1a), plasma membrane fraction
# Sequence (P21447 whole entry): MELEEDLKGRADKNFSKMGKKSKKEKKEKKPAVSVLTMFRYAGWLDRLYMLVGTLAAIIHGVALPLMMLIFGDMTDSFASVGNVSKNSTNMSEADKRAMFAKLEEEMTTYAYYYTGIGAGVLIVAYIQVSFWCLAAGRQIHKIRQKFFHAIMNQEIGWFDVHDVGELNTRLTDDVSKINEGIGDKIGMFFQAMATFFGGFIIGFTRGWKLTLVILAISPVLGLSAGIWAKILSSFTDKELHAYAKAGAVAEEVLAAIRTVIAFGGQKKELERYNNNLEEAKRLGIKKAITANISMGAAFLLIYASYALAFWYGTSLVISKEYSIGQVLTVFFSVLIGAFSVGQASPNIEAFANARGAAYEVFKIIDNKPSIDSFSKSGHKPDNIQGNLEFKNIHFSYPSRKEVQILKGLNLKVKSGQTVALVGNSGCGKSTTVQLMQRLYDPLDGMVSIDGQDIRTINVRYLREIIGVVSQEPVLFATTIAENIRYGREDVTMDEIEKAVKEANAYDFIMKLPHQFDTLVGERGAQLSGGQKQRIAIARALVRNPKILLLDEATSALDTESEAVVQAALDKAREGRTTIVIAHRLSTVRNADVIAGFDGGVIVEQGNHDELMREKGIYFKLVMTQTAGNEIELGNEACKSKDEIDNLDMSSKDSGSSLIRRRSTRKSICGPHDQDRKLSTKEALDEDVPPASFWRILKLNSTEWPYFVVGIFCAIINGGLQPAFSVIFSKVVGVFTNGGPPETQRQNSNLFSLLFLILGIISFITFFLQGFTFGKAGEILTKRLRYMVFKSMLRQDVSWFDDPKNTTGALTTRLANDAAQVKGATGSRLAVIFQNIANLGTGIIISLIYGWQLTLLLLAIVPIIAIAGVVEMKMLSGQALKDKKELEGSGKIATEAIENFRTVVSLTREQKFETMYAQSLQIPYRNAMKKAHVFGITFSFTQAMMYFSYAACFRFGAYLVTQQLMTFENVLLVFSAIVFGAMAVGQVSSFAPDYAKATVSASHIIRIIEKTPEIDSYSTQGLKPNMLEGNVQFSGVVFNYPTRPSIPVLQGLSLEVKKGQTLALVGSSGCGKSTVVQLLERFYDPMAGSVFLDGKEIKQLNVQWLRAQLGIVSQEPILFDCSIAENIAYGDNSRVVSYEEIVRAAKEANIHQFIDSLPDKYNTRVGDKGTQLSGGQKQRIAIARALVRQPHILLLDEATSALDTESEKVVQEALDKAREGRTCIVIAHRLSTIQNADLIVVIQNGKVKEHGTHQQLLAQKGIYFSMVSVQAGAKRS
# Procedure summary: Displacement of equilibrium [3H]vinblastine binding, LR73-1a membranes
Assay readout: pKi
Numbers only, as −log10 of the molar value.

Quick one: pKi of CC(=O)[C@H]1CC[C@H]2[C@@H]3CCC4=CC(=O)CC[C@]4(C)[C@H]3CC[C@]12C ?
5.72

All values here come from paper PMC2374293.
